Multi-source literature compilation: log10 Ki on Orexin receptor type 2 (Homo sapiens).
attribute measured: log10 Ki (log10 of the value in nM)

1. C[C@H]1[C@H](Nc2nc3ccccc3o2)CCCN1C(=O)c1cccc(F)c1-c1ncccn1 (relative stereo) : 2.47
2. Cc1cc(C)nc(N2CC3CN(C(=O)c4ncccc4C(F)(F)F)CC3C2)n1 (stereo not shown) : 3.95
3. Cc1ccc(Br)c(C(=O)N2C(C)C3CC(Nc4cnc(C(F)(F)F)cn4)C2C3)n1 (racemic) : 3.08
4. [2H]C([2H])([2H])[C@]1([2H])[C@H]2C[C@@H](Oc3ccc(C(F)(F)F)cn3)[C@H](C2)N1C(=O)c1cc(F)ccc1-c1ncccn1 : 2.88
5. CCOc1ncccc1C(=O)N1CC2CN(c3nc(C)cc(C)n3)CC2C1 (stereo not shown) : 2.52
6. C[C@@H]1[C@H]2C[C@@H](Oc3cnc(C(F)(F)F)cn3)[C@H](C2)N1C(=O)c1cccc(F)c1-n1nccn1 (relative stereo) : 3.41
7. C[C@H]1[C@H](Oc2ccc(C(F)(F)F)cn2)CCCN1C(=O)c1c(F)cccc1-c1ncccn1 : 2.96

* * *

Multi-source literature compilation: Ki on Orexin receptor type 2 (Homo sapiens, UniProt O43614).
attribute measured: Ki (nM)

1) Cc1ccc(-n2nccn2)c(C(=O)N2C[C@H](COc3ccc(Br)cn3)OC[C@H]2C)c1 : 1.3
2) C[C@H]1[C@H](Nc2ccc(C(F)(F)F)cn2)CCCN1C(=O)c1ccc(F)cc1-n1nccn1 (relative stereo) : 543
3) C[C@H]1[C@H](Oc2ccc(C(F)(F)F)cn2)CCCN1C(=O)c1ccccc1-n1nccn1 : 246
4) [2H]C1([2H])[C@H]2C[C@@H]([C@@H]1Oc1ccc(Cl)cn1)N(C(=O)c1cccc(F)c1-n1nccn1)[C@@H]2C : 481
5) C[C@H]1[C@H](Nc2ccc(C(F)(F)F)cn2)CCCN1C(=O)c1ncccc1-c1ncccn1 (relative stereo) : 293
6) C[C@H]1[C@H](Oc2ccc(C(F)(F)F)cn2)CCCN1C(=O)c1cc(F)ccc1-c1ncccn1 : 544
7) C[C@@H]1CCC(C#Cc2ccccn2)CN1C(=O)c1ccccc1-n1nccn1 (stereo in doubt) : 11
8) Cc1cc(C)nc(N2CC3CN(C(=O)c4nc(C)ccc4-c4ncccn4)CC3C2)n1 (centres unmarked) : 108
9) Cc1cnc(C(=O)N2[C@H](C)[C@@H]3CC[C@H]2[C@H](Oc2ccc(C(F)(F)F)cn2)C3)c(-n2nccn2)c1 : 872
10) C[C@H]1[C@H](Oc2ncc(C(F)(F)F)cc2F)CCCN1C(=O)c1ccccc1-n1nccn1 : 576
11) COc1ccc(C(=O)N2CCC[C@@H](Nc3ncc(Cl)cn3)[C@@H]2C)c(-n2nccn2)c1 (relative stereo) : 8600
12) C[C@@H]1[C@H]2C[C@@H](Oc3ccc(C(F)(F)F)cn3)[C@H](C2)N1C(=O)c1cc2ccccc2nc1OCCF : 5400
13) C[C@@H]1CC[C@@H](Oc2cc(C#N)ccn2)CN1C(=O)c1ccc(OC(F)F)cc1-n1nccn1 : 79
14) Cc1ccc(-c2ncccn2)c(C(=O)N2CCC[C@@H](Oc3ccc(C(F)(F)F)cn3)[C@@H]2C)n1 : 217
15) C[C@@H]1CC[C@@H](Oc2cc(C#N)ccn2)CN1C(=O)c1cn(C)nc1-n1nccn1 : 151
16) C[C@@H]1[C@H]2C[C@@H](Oc3ccc(C(F)(F)F)cn3)[C@H](C2)N1C(=O)c1ccccc1-n1ncc(CCCF)n1 : 1380
17) COc1ccc(C(=O)N2CCC[C@@H](Nc3ccc(Cl)cn3)[C@@H]2C)c(-n2nccn2)c1 (relative stereo) : 5200
18) Cc1ccc(-n2nccn2)c(C(=O)N2C(C)C3CC(Nc4ccc(C(F)(F)F)cn4)C2C3)n1 (racemic) : 236
19) CCOc1ccc(C)nc1C(=O)N1CCC[C@@H](Nc2ncc(C(F)(F)F)cn2)[C@@H]1C (relative stereo) : 2400
20) Cc1cc(C)nc(N2CC3CN(C(=O)c4c(F)cccc4-c4cn(C)cn4)CC3C2)n1 (centres unmarked) : 30
21) C[C@H]1[C@H](Oc2ncc(C(F)(F)F)cn2)CCCN1C(=O)c1cc(F)ccc1-c1ncco1 : 4400
22) Cc1cccc(C(=O)N2CCC[C@@H](Oc3cnc(C(F)(F)F)cn3)[C@@H]2C)c1-c1ncccn1 : 1100
23) Cc1cccc(C(=O)N2CCC[C@@H](Oc3ncc(C(F)(F)F)cn3)[C@@H]2C)c1-c1ncccn1 : 1800
